B1: LINE1-full (parent)
chain: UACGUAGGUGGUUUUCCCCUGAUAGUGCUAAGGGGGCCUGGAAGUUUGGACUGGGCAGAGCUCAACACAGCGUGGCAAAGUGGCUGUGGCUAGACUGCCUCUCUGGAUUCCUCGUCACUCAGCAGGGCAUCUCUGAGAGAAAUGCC

# Variants of: B1
# Test name: self-cleavage, relative activity (ratio to wild type); higher = more cleavage; in vitro, sequencing; the parent is a self-cleaving ribozyme
Grouping key: self-cleavage. Bins: b0 (below 0.5), b1 (0.5 to below 1), b2 (1 or more)

| Construct sequence | Category |
| --- | --- |
| UACGUAGGUGGUUUUCCCCUGAUAGUGCUAUGGGGGCCAGGAAGUUUGGACUGGGCAGAGCUCAACACAGCGUGGCAAAGUGGCUGUGGCUAGACUGCCUCUCUGGAUUCCUCGUCACUCAGCAGGGCAUCUCUGAGAGAAAUGCC | b2 |
| UACGUAGGUGGUUUUCCCCUGAUAGUGCUAAGGGGGCCUGGAAGUUUGGACUGGGCAGAGCUCAACACAGCGUGGCAAAGUGGCUGUGGCCAGACUGCCUCUCUGGAUUCCUCGUCACUCAGCAGGGCAUCUCUGAGAGAAAAGCC | b1 |
| UACGUAGGUGGUUUUCCCCUGAUAGUGCUAAGGGGGCCUGGAAGUUUGGACUGGGCAGAGCUCAACACAGCGUGGCAAAGUGGCCGUGGCUAGACUGCCUCUCUGGAUCCCUCGUCACUCAGCAGGGCAUCUCUGAGAGAAAUGCC | b0 |
| UACGUAGGUGGUUUUCCCCUGAUAGUGCUAAGGGGGCCUGGAAGUUUGGACUGGGCAGAGCUCAACACAGCGUGGCAAGGCGGCUGUGGCUAGACUGCCUCUCUGGAUUCCUCGUCACUCAGCAGGGCAUCUCUGAGAGAAAUGCC | b0 |
| UACGCAGGUGGUUUUCCCCAGAUAGUGCUAAGGGGGCCUGGAAGUUUGGACUGGGCAGAGCUCAACACAGCGUGGCAAAGUGGCUGUGGCUAGACUGCCUCUCUGGAUUCCUCGUCACUCAGCAGGGCAUCUCUGAGAGAAAUGCC | b1 |

Could you place UACGUAGGUGGUUUUCCCCUGAUAGUGCUAAGGGGGCCUGGAAGUUUGGACUGGGCAGAGCUCAACACAGCGUGGCAAAGUGGCUGUGGCUAGACUGCCUCUCUGGAUUCCUCGUCACUCAGCAGGGCUUCUCGGAGAGAAAUGCC in its proper category? Many thanks.
b2

Could you place UACGUAGGUGGUUUUCCCCUGAUAGUGCUAAAGGGGCCUGGAAGUUUGGACUGGGCAGAGCUCAACACAGCGUGGCAAAGUGGCUGUGGCUAGACUGCCUCUCUGGAUUCCUCGUCACUCAGCAGGGCAUCUCUGUGAGAAAUGCC in its proper category? Many thanks.
b0

Could you place UACGUAGGUGGUUUUCCCCUGAUAGUGCUUAGGGGGCCUGGAAGUUUGGACUGGGCAGAGCUCAACACAGCGUGGCAAAGUGGCUGUGUCUAGACUGCCUCUCUGGAUUCCUCGUCACUCAGCAGGGCAUCUCUGAGAGAAAUGCC in its proper category? Many thanks.
b0

Could you place UACGUAGGUGGUUUUCCCCUGAUAGUGCUAAGGGGGCCUGGAAGUUUGGACUGGGCAGAGCUCAACACAGCGUGGCAAAGUGGCUGUGGCUAGACUGCCUCUCUGGCUUCCUCGUCACUCAGCAGGGCAUCUCUGAGAGAAAUGCC in its proper category? Many thanks.
b2

Could you place UACGUAGGUGGUUUUCCCCUGAUAGUGCUAAGGGGGCCUGGAAGUUUGGACUGGGCAGAGCUCAACACGGCGUGGCAAAGUGGCAGUGGCUAGACUGCCUCUCUGGAUUCCUCGUCACUCAGCAGGGCAUCUCUGAGAGAAAUGCC in its proper category? Many thanks.
b0

Could you place UACGUAGGUGGUUUUCCCCUGAUAAUGCUAAGGGGGCCUGGAAGUUUGGACUGGGCAGAGCUCAACACAGCGUGGCAAAGUGGCUGUGGCUAGACUGCGUCUCUGGAUUCCUCGUCACUCAGCAGGGCAUCUCUGAGAGAAAUGCC in its proper category? Many thanks.
b0

Could you place UACGUAGGUGGUUGUCCCCUGAUAGUGCUAAGGGGGCCUGGAAGUUUGGACUGGGCAGAGCUCAACACAGCGUGGCAAAGUGGCUGUGGCUAGACUGCCUCUCUGGAUUCCUCGUCACUCAGCAGGGCAUCCCUGAGAGAAAUGCC in its proper category? Many thanks.
b2

Could you place UACGUAGGUGGUUUUCCCCUGAUAGUGCUAAGGGGGCCUGGAAGUUUGGACUGGGCAGAGCUCAACACAGCGUGGCAAAGUGGCUGUGGCUAGACUGCCUCACUGGAUUCCUCGUCACUCUGCAGGGCAUCUCUGAGAGAAAUGCC in its proper category? Many thanks.
b2

Could you place UACGUAGGUGGUCUUCCCCUGAUAGUGCUAAGGGGGCCUGGAAGUUUGGACUGGGCAGAGCUCAACACAGCGUGGCAAAGUAGCUGUGGCUAGACUGCCUCUCUGGAUUCCUCGUCACUCAGCAGGGCAUCUCUGAGAGAAAUGCC in its proper category? Many thanks.
b1

Could you place UACGCAGGUGGUUUUCCCCUGAUAGUGCUAAGGGGGCCUGGAAGUUUGGACUGGGCAGAGCUCAACACAGCGUGGCAAAGUGGCUGUGGCUAGACUGCCUCUCUGGAUUCCUCAUCACUCAGCAGGGCAUCUCUGAGAGAAAUGCC in its proper category? Many thanks.
b1

Could you place UACGUAGGUGGUUUUCCCCUGAUAGUGCUAAGGGGGCCUGGAAGUUUGGACUGGGCAGAGCACAACACAGCAUGGCAAAGUGGCUGUGGCUAGACUGCCUCUCUGGAUUCCUCGUCACUCAGCAGGGCAUCUCUGAGAGAAAUGCC in its proper category? Many thanks.
b0

Every entry's value here was drawn from the RNAGym collection of RNA variant scans (doi:10.7554/elife.90254).
